Test system: TO-N3 (biotin conjugate)
Method notes: pull-down binding Z-score (relative to library population); higher = stronger binding
Assay context: RNA library: Library-2
Measured property: pull-down binding Z-score
Numbers only.

Answered cases to consult:
Sequence data: GUGAAGAAUCAU
pull-down binding Z-score: 0.379

Sequence data: UCUGGGGAGAGAGUCCUCUUUUCAGC [hsa-mir-8082]
pull-down binding Z-score: 0.571

Please state, for each entry, its recorded pull-down binding Z-score.
1. GCAGAUAGUGGUCCUCUCCGUGCUACCGC [hsa-mir-106b]
2. CUGUGAUAACAACUCAG [hsa-mir-4705]
3. CUUUCCUCAGCUGAUUUCUUUCUGGGGAGAG [hsa-mir-5186]
4. GGGGAGAGGGACACGCCCUGGGCUCUGCCCAGGGUGCAGCCGGACUGACUGAG [hsa-mir-1225]
5. AGCAGUACCAGACGGUUCUGUGG [hsa-mir-3198-1]

Result block:
0.316
0.29
-0.52
1.95
0.0664

====

System: TO-N3-2 (biotin conjugate)
Method notes: pull-down binding Z-score (relative to library population); higher = stronger binding
Assay context: RNA library: Library-2
Measured property: pull-down binding Z-score
Answers are plain numbers.

Answered cases to consult:
Sequence data: GACAUGCUCUGACUCCCCUGAUGUC [hsa-mir-6852]
Measured target: TO-N3-2 (biotin conjugate)
pull-down binding Z-score: 1.18

Sequence data: UGCAAAUGCAAAGUUGGCUUUUGCA [hsa-mir-3680-2_3680-1]
Measured target: TO-N3-2 (biotin conjugate)
pull-down binding Z-score: -0.878

Sequence data: AUUUCUGUGUUCGUUAGGCAACAG [hsa-mir-221]
Measured target: TO-N3-2 (biotin conjugate)
pull-down binding Z-score: 0.324

Please state, for each entry, its recorded pull-down binding Z-score.
1. UUUACAUGCUACAGUCAAGAUGCGAA [hsa-mir-15b]
2. AGACUCUGGAUUUUACACUUGGAGUG [hsa-mir-887]

Result block:
-0.147
-0.0223

Please state, for each entry, its recorded pull-down binding Z-score.
1. UGUGACUGGACA [SHAPE_invivo_SARS-CoV-2_Motif_313]
2. UCAGUUUUGUAGCAUCAAAACU [hsa-mir-4521]
3. GAAGUUACAACAACUCUGGAAGAAACUAAGUUCCUCACAGAAAACUUGUUACUUU [DMSMaPseq_invitro_SARS-CoV-2_Motif_72]

Result block:
-0.14
-0.134
0.97

Please state, for each entry, its recorded pull-down binding Z-score.
1. CAUCGUUGAUAGUG [SHAPE_invitro_SARS-CoV-2_Motif_152]
2. AAAUUUUUGGCUUUGUGUGCUGACUCUAUCAUUAUUGGUGGAGCUAAACUUAAAGCCUUGAAUUU [SHAPE_invivo_SARS-CoV-2_Motif_45]
3. GGCCCGAGUGAUGGGCU [IAV_invivo_NA_6_Motif_9+IAV_invivo_NA_6_Motif_9]
4. CCCCACUACAAUUGGGG [IAV_invivo_HA_4_Motif_4+IAV_invivo_HA_4_Motif_4]
5. GCUAAAGAUACUACUGAAGCCUUUGAAAAAAUGGUUUCACUACUUUCUGUUUUGC [SHAPE_invitro_SARS-CoV-2_Motif_217]
6. CACCCGCGAAGAAGCUAUAAGACAUGUACGUGCAUGGAUUGGCUUCGAUGUCGAGGGGUG
7. AAGACUCAUCUCUAUGAUGGGUUUU
8. CUCACUGCAGAAUUAUUUUGAG [hsa-mir-4524a]

Result block:
0.588
-0.994
0.201
-1.27
-0.245
0.0562
-1.46
-0.99

Please state, for each entry, its recorded pull-down binding Z-score.
1. CUUCAGAGCAGGGUUUGGUCUGUGCUUCUCUG [hsa-mir-6719]
2. UGUGUGUACUCACAGCCCCUCACACA [hsa-mir-942]

Result block:
1. 0.452
2. -0.11

Query block: Provide the documented pull-down binding Z-score with TO-N3-2 (biotin conjugate) as the system for AUAGUUUUAGGGCAGGGAUUUUGCCCACAAGGAGGUAACUAU [hsa-let-7d]
Result block: 0.203
